result_type: melting point

- compound: "FC(F)(F)C(Cc1ccccc1)(C(F)(F)F)C(F)(F)F"
  reported: "32 to 33 °C"
- compound: "CCNC(=O)COc1cc2c(c(Cl)c1Cl)C(=O)C(C)(C(C)C)C2 (stereo not given)"
  reported: "146 °C"
- compound: "CSc1ccc(-c2n[nH]c(C(F)(F)F)c2-c2ccc(F)cc2)cc1"
  reported: "189 to 190 °C"
- compound: "O=C(NCCOc1ccc(CC(Oc2ccccc2)C(=O)O)cc1Br)c1ccc(-c2ccccn2)cc1 (stereo not given)"
  reported: "83 to 84 °C"
- compound: "O=C(c1ccco1)N1Cc2c(-c3noc(C4CC4)n3)ncn2-c2ccccc21"
  reported: "190 to 191 °C"
- compound: "COc1cc(C=CC(=O)Nc2cnc3ccccc3c2-c2ccccc2Cl)cc(OC)c1OC(C)=O"
  reported: "237 to 238 °C"
- compound: "Sc1nsnc1-c1c(Cl)cccc1Cl"
  reported: "91 to 94 °C"
- compound: "CS(=O)(=O)c1ccc(Oc2cc(OCc3ccccc3)c3[nH]c(C(N)=O)cc3c2)cc1"
  reported: "251 to 252 °C"
- compound: "CN1CCN(c2ccc(Nc3ncc4c(n3)S/C(=C/c3ccc(F)cc3)C(=O)N4)cc2)CC1"
  reported: "172 to 175 °C"
- compound: "CCNc1nc(Cl)nc2nc[nH]c12"
  reported: "237 to 239 °C"
